experiment_description: TLR3 IRF3 reporter activation blockers – cell-based, poly I:C stimulus, luciferase, 10K MLSCN set, primary screen (AID 602277)
measurement_context: HEK293-TLR3 RL24 IRF3 luciferase reporter, at 10 µM
The source made the active and inactive calls.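 Rule for the calls: active = inhibition of the reporter signal at or above 50%; inactive = inhibition below 50%.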
Outcomes: YES for active, NO for inactive

>>> group_label("CC(=O)C(Sc1ncnc2c1nnn2-c1ccc(F)cc1)C(=O)N(C)C (stereo unspecified)")
"NO"
>>> group_label("CCCCN(Cc1cc2cc(OC)ccc2[nH]c1=O)C(=O)c1ccccn1")
"YES"
>>> group_label("COc1ccccc1NC(=O)NCCCN1CCN(c2cccc(Cl)c2)CC1")
"NO"
>>> group_label("COc1ccc2oc(=O)c(C(=O)N3CCN(c4ccccc4F)CC3)cc2c1")
"NO"
>>> group_label("CC(C)Cc1nc2oc3c(N4CCN(CCO)CC4)ncnc3c2c2c1CCCC2")
"NO"
>>> group_label("O=C(COc1ccc(S(=O)(=O)NC2CCCCC2)cc1Cl)NCC1CCCO1 (stereo unspecified)")
"NO"

###

experiment_description: inhibitors of TNFa-induced NFkB p65 translocation, primary screen, imaging, HUVEC, MLSMR starter and 10KST1 sets (AID 438);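 note: compound added about 3h40 before a 20 min TNFalpha stimulation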
measurement_context: HUVEC TNFa-induced p65 nuclear translocation; measured here: nuclei count (cytotoxicity indicator), at 2.08 µM
Consider the following compounds and their measured cell count readings.
readout_label: cell count

>>> experimental_value("CCN(CC)S(=O)(=O)c1ccc2[nH]cc(C(=O)NCCC3=CCCCC3)c(=O)c2c1")
344
>>> experimental_value("CCCc1cc(C(=O)Nc2sc3c(c2C#N)CCC3)no1")
633
>>> experimental_value("CCN(CC)CCCNS(=O)(=O)c1ccc(OC)cc1")
460
>>> experimental_value("COc1ccccc1NC(=O)C1=C(C)Nc2nnnn2C1c1ccccc1OC (stereo unspecified)")
453
>>> experimental_value("O=C(NC1CCCCC1)C1CCCN1C(=O)NCc1ccccc1 (stereo unspecified)")
317
>>> experimental_value("Cc1cc(Cl)ccc1OCC(=O)Nn1c(C)ccc1C")
480

###

experiment_description: reduction of polyQ htt aggregates in cells – imaging, exon1htt(103Q)mCFP cells, high-content imaging, primary screen (AID 483);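 note: compound exposure lasted 3 days before fixation; percent of the per-plate median nuclei count of sample wells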
measurement_context: exon1htt(103Q)mCFP cell line, aggregate imaging, at 2 µM; measured here: cell count, toxicity
readout_label: nuclei count (%)

>>> experimental_value("CCOc1cc(C(=O)N(C)Cc2cc3cc(OC)ccc3[nH]c2=O)cc(OCC)c1OCC")
83.8
>>> experimental_value("O=C(NC1CCCC1)C(c1ccco1)N(Cc1ccccc1)C(=O)c1csnn1 (stereo unspecified)")
97.6
>>> experimental_value("O=C(CCNC(=O)c1ccc(Br)o1)NC1CCCC1")
77.7
>>> experimental_value("CCCCOc1ccc(-c2ncc(Cl)cn2)cc1")
98.8
>>> experimental_value("COc1ccc2cc3cc(C(=O)NCC4CCCO4)oc3nc2c1 (stereo unspecified)")
56.8
>>> experimental_value("O=C(OCC(=O)N1CCc2ccccc21)C1=COCCO1")
86.5

###

experiment_description: blockers of RIG-like receptor reporter activation – cell-based, Sendai virus stimulus, luciferase, 10K MLSCN set, TLR/RLR signaling modifier project, primary screen (AID 602276);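 note: firefly luciferase from ISG56 promoter only with Renilla not read in this screen; 0% = Sendai virus plus DMSO and 100% = medium plus DMSO without virus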
measurement_context: HEK293 RL24 IRF3 luciferase reporter, at 10 µM, stronger effect = higher value
Record TRUE whenever inhibition is at 7% or higher; record FALSE when lower.

>>> group_label("CCOC(=O)N1CCN(C(=O)CSc2nnc(Cc3ccccc3)o2)CC1")
"FALSE"
>>> group_label("O=C(Nc1ccc2c(c1)OCO2)c1cc2ncc(Br)cn2n1")
"FALSE"
>>> group_label("CCN(CCCNS(=O)(=O)c1ccc2c(c1)oc(=O)n2C)c1cccc(C)c1")
"TRUE"
>>> group_label("CCN(CCNC(=O)C1CCN(S(C)(=O)=O)CC1)c1ccccc1")
"TRUE"
>>> group_label("CCc1nc(C)c(C#N)c2cc(OC)c(OC)cc12")
"TRUE"
